Each entry below lists one item and its recorded IC50 (nM), HT29 meso+ cells, MTT proliferation assay value.
target: Mesothelin (SwissProt reference Q13421-3) (Homo sapiens, UniProt Q13421 37-622); assay: cell-based or functional assay
// units = nM; emit number, no label

# count of solved cases: 4
Example 57, conjugate of anti-mesothelin antibody MF-Ta (antibody, human IgG1, lambda, V domains shown, toxophore-linker on Cys sulfur, sites not given) VH: QVELVQSGAEVKKPGESLKISCKGSGYSFTSYWIGWVRQAPGKGLEWMGIIDPGDSRTRYSPSFQGQVTISADKSISTAYLQWSSLKASDTAMYYCARGQLYGGTYMDGWGQGTLVTVSS VL: DIALTQPASVSGSPGQSITISCTGTSSDIGGYNSVSWYQQHPGKAPKLMIYGVNNRPSGVSNRFSGSKSGNTASLTISGLQAEDEADYYCSSYDIESATPVFGGGTKLTVLG :: 0.4
Example 143, conjugate of anti-mesothelin antibody MF-Ta (antibody, human IgG1, lambda, V domains shown, toxophore-linker on Lys NH, sites not given) VH: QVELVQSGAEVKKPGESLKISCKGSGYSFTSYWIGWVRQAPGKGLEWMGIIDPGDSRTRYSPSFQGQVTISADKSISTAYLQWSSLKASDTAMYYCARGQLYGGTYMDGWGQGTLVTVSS VL: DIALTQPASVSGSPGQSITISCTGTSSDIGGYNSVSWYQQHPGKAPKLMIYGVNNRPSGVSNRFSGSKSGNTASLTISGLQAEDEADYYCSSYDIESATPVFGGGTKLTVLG :: 0.3
Example 137, conjugate of anti-mesothelin antibody MF-Ta (antibody, human IgG1, lambda, V domains shown, toxophore-linker on Cys sulfur, sites not given) VH: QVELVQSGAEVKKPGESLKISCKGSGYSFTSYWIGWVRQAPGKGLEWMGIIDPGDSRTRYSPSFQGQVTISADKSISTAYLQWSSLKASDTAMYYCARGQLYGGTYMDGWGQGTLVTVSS VL: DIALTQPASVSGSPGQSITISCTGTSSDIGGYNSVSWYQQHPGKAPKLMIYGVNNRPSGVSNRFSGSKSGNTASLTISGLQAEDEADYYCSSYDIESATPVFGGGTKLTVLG :: 0.04
Example 102, conjugate of anti-mesothelin antibody MF-Ta (antibody, human IgG1, lambda, V domains shown, toxophore-linker on Lys NH, sites not given) VH: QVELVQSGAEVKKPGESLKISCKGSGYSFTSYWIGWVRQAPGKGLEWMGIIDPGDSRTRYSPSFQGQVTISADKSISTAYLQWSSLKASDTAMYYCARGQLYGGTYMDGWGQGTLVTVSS VL: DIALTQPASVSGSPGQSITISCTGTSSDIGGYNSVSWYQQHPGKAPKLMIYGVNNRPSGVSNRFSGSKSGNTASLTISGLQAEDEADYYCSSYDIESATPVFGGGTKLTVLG :: 7.2

[ask] Record request: IC50 (nM), HT29 meso+ cells, MTT proliferation assay value, item Example 84, conjugate of anti-mesothelin antibody MF-Ta (antibody, human IgG1, lambda, V domains shown, toxophore-linker on Lys NH, sites not given) VH: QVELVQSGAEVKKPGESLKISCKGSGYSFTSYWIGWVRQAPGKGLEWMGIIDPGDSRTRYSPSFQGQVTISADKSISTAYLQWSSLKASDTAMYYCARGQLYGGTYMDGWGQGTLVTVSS VL: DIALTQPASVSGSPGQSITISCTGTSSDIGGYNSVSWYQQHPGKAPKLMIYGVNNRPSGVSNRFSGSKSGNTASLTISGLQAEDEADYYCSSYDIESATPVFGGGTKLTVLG
[reply] 6
